Values from patent US11130741B2

Please provide measured log10 MIC for the entries that follow.
Tested on: Staphylococcus aureus (ATCC25923)
Test: MIC, broth microdilution (CLSI), Staphylococcus aureus ATCC25923
Conditions: ATCC25923, read-out: S. aureus ("Clinical") MIC
Could you please treat all values as log10 of MIC in µg/mL?

**Query** I'd like to know its log10 MIC. The molecule in question is NCCCN1c2ccccc2Sc2cc(-c3cc4ccccc4n3CCN)ccc21.O=C(O)C(F)(F)F.O=C(O)C(F)(F)F
**Result** 0.48

**Query** I'd like to know its log10 MIC. The molecule in question is NC1CCC(Nc2cc(C(F)(F)F)cc3c2Nc2ccccc2S3)CC1 (stereo not shown)
**Result** 0.85

**Query** I'd like to know its log10 MIC. The molecule in question is NCCN1CCCC(CNc2cc(C(F)(F)F)cc3c2Nc2ccccc2S3)C1 (stereo not shown)
**Result** 0.85

**Query** I'd like to know its log10 MIC. The molecule in question is NC(Cc1c[nH]c2ccccc12)C(=O)Nc1cc(C(F)(F)F)cc2c1Nc1ccccc1S2 (stereo not shown)
**Result** 0.30

**Query** I'd like to know its log10 MIC. The molecule in question is CNCCCN1c2ccccc2Sc2cc(-c3cc4ccccc4[nH]3)ccc21
**Result** 0.30

**Query** I'd like to know its log10 MIC. The molecule in question is O=C(Nc1cc(C(F)(F)F)cc2c1Nc1ccccc1S2)[C@@H]1CCCNC1
**Result** 1.20

**Query** I'd like to know its log10 MIC. The molecule in question is CN(C)CCCN1c2ccccc2Sc2cc(-c3ccc4[nH]ccc4c3)ccc21
**Result** 0.78

**Query** I'd like to know its log10 MIC. The molecule in question is NNC(=O)c1cc(NC2CCNCC2)c2c(c1)Sc1ccccc1N2.O=C(O)C(F)(F)F
**Result** 1.78

**Query** I'd like to know its log10 MIC. The molecule in question is O=C(CC1(O)CCC(F)(F)CC1)Nc1cc(C(F)(F)F)cc2c1Nc1ccccc1S2
**Result** 0.85

**Query** I'd like to know its log10 MIC. The molecule in question is NCCN1c2ccccc2Sc2cc(-c3cc4ccccc4[nH]3)ccc21
**Result** 0.48

**Query** I'd like to know its log10 MIC. The molecule in question is NCCNC(=S)Nc1cc(C(F)(F)F)cc2c1Nc1ccccc1S2
**Result** 0.90

**Query** I'd like to know its log10 MIC. The molecule in question is CN(C)CCCN1c2ccccc2Sc2cc(-c3ccc4scnc4c3)ccc21
**Result** 0.85

**Query** I'd like to know its log10 MIC. The molecule in question is CN1CCN(CCCN2c3ccccc3Sc3cc(C(F)(F)F)cc(N)c32)CC1
**Result** 1.43

**Query** I'd like to know its log10 MIC. The molecule in question is FC(F)(F)c1cc(NC2CCNCC2)c2c(c1)Sc1cc(Cl)ccc1N2
**Result** 0.48

**Query** I'd like to know its log10 MIC. The molecule in question is CN(C)CCCN1c2ccccc2Sc2cc(-c3cc4cc(C#N)ccc4[nH]3)ccc21
**Result** 0.30

**Query** I'd like to know its log10 MIC. The molecule in question is NCCN1CCOC[C@H]1C(=O)Nc1cc(C(F)(F)F)cc2c1Nc1ccccc1S2.O=C(O)C(F)(F)F
**Result** 1.85

**Query** I'd like to know its log10 MIC. The molecule in question is FC(F)(F)c1cc(NC2CCNCC2)c2c(c1)Sc1cc(-c3cc4ccccc4[nH]3)ccc1N2
**Result** 1.18

**Query** I'd like to know its log10 MIC. The molecule in question is CN(C)CCCN1c2ccccc2Sc2cc(-c3nc4ccccc4[nH]3)ccc21
**Result** 1.11

**Query** I'd like to know its log10 MIC. The molecule in question is NCCC1CCC(CNc2cc(C(F)(F)F)cc3c2Nc2ccccc2S3)CC1 (stereo not shown)
**Result** 0.48

**Query** I'd like to know its log10 MIC. The molecule in question is NC1CCCC(Nc2cc(C(F)(F)F)cc3c2Nc2ccccc2S3)C1 (stereo not shown)
**Result** 0.48

**Query** I'd like to know its log10 MIC. The molecule in question is COc1ccc2c(c1)Sc1cc(-c3cc4ccccc4[nH]3)ccc1N2CCCN(C)C
**Result** 0.30

**Query** I'd like to know its log10 MIC. The molecule in question is O=C(/C=C/c1ccc(F)cc1)Nc1cc(C(F)(F)F)cc2c1Nc1ccccc1S2
**Result** 0.00

**Query** I'd like to know its log10 MIC. The molecule in question is FC(F)(F)c1cc(NC2CCNCC2)c2c(c1)Sc1cc(-c3cc4ccccc4[nH]3)ccc1N2.O=C(O)C(F)(F)F
**Result** 1.28

**Query** I'd like to know its log10 MIC. The molecule in question is O=C(Nc1cc(C(F)(F)F)cc2c1Nc1ccccc1S2)[C@H]1CCCNC1
**Result** 1.51

**Query** I'd like to know its log10 MIC. The molecule in question is FC(F)(F)c1cc(NC2CNC2)c2c(c1)Sc1ccccc1N2
**Result** 0.70

**Query** I'd like to know its log10 MIC. The molecule in question is NCCC(=O)Nc1cc(C(F)(F)F)cc2c1Nc1ccccc1S2
**Result** 0.90

**Query** I'd like to know its log10 MIC. The molecule in question is NCCCN1c2ccccc2Sc2cc(-c3cc4ccccc4[nH]3)ccc21
**Result** 0.00

**Query** I'd like to know its log10 MIC. The molecule in question is CN(C)CCCN1c2ccccc2Sc2cc(-c3cc4cc(C#N)ccc4[nH]3)ccc21.O=C(O)C(F)(F)F
**Result** 0.48

**Query** I'd like to know its log10 MIC. The molecule in question is CN(C)CCCN1c2ccccc2Sc2cc(-c3cc4ccccc4n3CCN)ccc21
**Result** 0.85

**Query** I'd like to know its log10 MIC. The molecule in question is CN(C)CCCN1c2ccccc2Sc2cc(-c3cc4cc(O)ccc4[nH]3)ccc21
**Result** 1.11

**Query** I'd like to know its log10 MIC. The molecule in question is FC(F)(F)c1cc(NC2CCNCC2)c2c(c1)Oc1ccccc1N2
**Result** 1.04

**Query** I'd like to know its log10 MIC. The molecule in question is CN(C)CCCN1c2ccc(-c3cc4ccccc4[nH]3)cc2Sc2cc([N+](=O)[O-])ccc21
**Result** 0.60

**Query** I'd like to know its log10 MIC. The molecule in question is CN(C)CCCN1c2ccccc2Sc2cc(-c3nc4ccccc4s3)ccc21
**Result** 0.48

**Query** I'd like to know its log10 MIC. The molecule in question is NC1CCC(C(=O)Nc2cc(C(F)(F)F)cc3c2Nc2ccccc2S3)CC1 (stereo not shown)
**Result** 1.51
